- assayed_system: renin (Homo sapiens, UniProt P00797)
- Sequence (P00797 67-406): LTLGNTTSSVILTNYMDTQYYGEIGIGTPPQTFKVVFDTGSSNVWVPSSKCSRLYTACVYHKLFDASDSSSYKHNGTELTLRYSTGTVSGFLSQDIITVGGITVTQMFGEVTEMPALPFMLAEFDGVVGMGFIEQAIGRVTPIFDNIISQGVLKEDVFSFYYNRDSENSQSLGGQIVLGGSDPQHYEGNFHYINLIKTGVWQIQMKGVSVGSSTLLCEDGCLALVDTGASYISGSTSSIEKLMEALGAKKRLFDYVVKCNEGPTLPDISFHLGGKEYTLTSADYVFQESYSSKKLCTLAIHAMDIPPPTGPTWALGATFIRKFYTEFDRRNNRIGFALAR
- procedure_details: in vitro renin inhibitory activity, radioimmunoassay for angiotensin I
- Assay type: biochemical
- details: read-out: IC50
metric: IC50

Consider the reported IC50 for these compounds:
1. CCC(C)CNC(=O)C[C@H](O)[C@H](CC1CCCCC1)NC(=O)[C@H](CCCCNC(=N)N[N+](=O)[O-])NC(=O)C(Cc1cccc2ccccc12)Cc1cccc2ccccc12 (stereo partly drawn) : 15 nM
2. CC[C@H](C)CNC(=O)C[C@H](O)[C@H](CC(C)C)NC(=O)C(NC(=O)C(Cc1cccc2ccccc12)Cc1cccc2ccccc12)C(=O)NCCc1cnc[nH]1 (stereo partly drawn) : 3100 nM
3. CC(=O)NCC#CCC(NC(=O)C(Cc1cccc2ccccc12)Cc1cccc2ccccc12)C(=O)N[C@@H](CC1CCCCC1)[C@@H](O)CC(=O)NCCN1CCOCC1 (stereo partly drawn) : 8.6 nM

Batch of 3 compounds: report IC50 for each.
1. O=CNCC#CCC(NC(=O)C(Cc1cccc2ccccc12)Cc1cccc2ccccc12)C(=O)N[C@@H](CC1CCCCC1)[C@@H](O)CC(=O)NCCN1CCOCC1 (stereo partly drawn)
2. CCCCNC(=S)NCCCC[C@H](NC(=O)C(Cc1cccc2ccccc12)Cc1cccc2ccccc12)C(=O)N[C@@H](CC(C)C)[C@@H](O)CC(=O)NC[C@@H](C)CC
3. CC(C)C[C@H](NC(=O)[C@H](CCCCNC(=N)N[N+](=O)[O-])NC(=O)C(Cc1cccc2ccccc12)Cc1cccc2ccccc12)[C@@H](O)CC(=O)NCCN1CCOCC1

Result:
8 nM
46 nM
45 nM
